Test system: NCI-H1437
Assay: relative viability (nuclei count vs DMSO), 5 days (fraction); higher = more cells survive
Details: first compound 0.2 µM
Entries whose relative viability is below 0.4 take 1; entries at or above 0.4 take -1.

{"compound": "CCNC(=O)c1noc(-c2cc(C(C)C)c(O)cc2O)c1-c1ccc(CN2CCOCC2)cc1 [Luminespib] + CC(C)C[C@H](NC(=O)[C@H](Cc1ccccc1)NC(=O)c1cnccn1)B(O)O [Bortezomib] (partner 0.002 µM)", "assignedClass": 1}
{"compound": "Cc1csc(=NC2CCCCC2)n1/N=C/c1ccc(O)c(O)c1O [MIM1] + CCNC(=O)c1noc(-c2cc(C(C)C)c(O)cc2O)c1-c1ccc(CN2CCOCC2)cc1 [Luminespib] (partner 0.01 µM)", "assignedClass": -1}
{"compound": "CCNC(=O)c1noc(-c2cc(C(C)C)c(O)cc2O)c1-c1ccc(CN2CCOCC2)cc1 [Luminespib] + N=C(N)NC(=N)NCCc1ccccc1 [Phenformin] (partner 250 µM)", "assignedClass": 1}
{"compound": "CN1CCN(CCOc2cc(OC3CCOCC3)c3c(Nc4c(Cl)ccc5c4OCO5)ncnc3c2)CC1 [Saracatinib] + CS(=O)(=O)N1CCN(Cc2cc3nc(-c4cccc5[nH]ncc45)nc(N4CCOCC4)c3s2)CC1 [Pictilisib] (partner 1 µM)", "assignedClass": -1}

Okay, now this compound:
Task item: Could you please tell me whether relative viability recorded for CCNC(=O)c1noc(-c2cc(C(C)C)c(O)cc2O)c1-c1ccc(CN2CCOCC2)cc1 [Luminespib] + NC(=O)Nc1cc(-c2cccc(F)c2)sc1C(=O)N[C@H]1CCCNC1 [AZD7762] (partner 0.2 µM) is less than 0.4?
Reply: 1
